So I've got a bunch of molecules here, and I need their ka values.
target: T1, bacterially produced human IL-6 (Homo sapiens, UniProt P05231); experiment: Surface plasmon resonance (Biacore), bacterially produced human IL-6 coated on CM5 chip; format: binding; details: bact; periplasmic fractions, 28A6 chain-shuffled
T1 construct: His
T1 sequence (P05231 30-212): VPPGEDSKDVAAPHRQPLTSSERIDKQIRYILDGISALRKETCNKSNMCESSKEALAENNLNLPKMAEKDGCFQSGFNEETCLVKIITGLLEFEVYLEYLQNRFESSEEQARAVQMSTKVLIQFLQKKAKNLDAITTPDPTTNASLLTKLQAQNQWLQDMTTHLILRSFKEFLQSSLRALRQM

Asked: What value of measured ka is listed for 55E10g1: 28A6 chain-shuffled Fab, periplasmic fraction (antibody, V domains shown) VH: QVQLVESGGGLVQPGGSLRLSCAASGFTFSNYYMTWVRQAPGKGLEWVSSIYSFSGDTAYADSVKGRFTISRDNAKNTLYLQMNSLKSEDTAVYYCTRNLGGVVVTTNGYDYWGQGTQVTVSS VL: DIQMTQSPSSLPTSLGDSVTITCQASQSISDELSWYQQKPGQTPKLLIYGASKLQTGVPSRFSGSGSGTSFTLTISGLEAEDLATYYCLQGYSWPFMFGQGTKVELK ?
Given back: 193000 M⁻¹ s⁻¹

Asked: Further, for 55A11d: 28A6 chain-shuffled Fab, periplasmic fraction (antibody, V domains shown) VH: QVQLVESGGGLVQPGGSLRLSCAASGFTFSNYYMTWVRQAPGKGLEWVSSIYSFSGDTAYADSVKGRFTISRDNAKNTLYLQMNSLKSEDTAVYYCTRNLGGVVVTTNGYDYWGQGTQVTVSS VL: DIQMTQSPSSLPTSLGDSVTITCQASQSISDELSWYQQKPGQTPKLLIYGASRLQTGVPSRFSGRGSGTSFTLTISGLEAEDLATYYCLQGYSWPFMFGQGTKVELK ?
Given back: 188000 M⁻¹ s⁻¹

Asked: Entry to check: 55C11f: 28A6 chain-shuffled Fab, periplasmic fraction (antibody, V domains shown) VH: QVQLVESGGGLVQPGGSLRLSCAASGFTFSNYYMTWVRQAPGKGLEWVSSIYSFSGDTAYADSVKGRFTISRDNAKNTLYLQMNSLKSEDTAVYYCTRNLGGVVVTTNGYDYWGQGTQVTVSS VL: DIQLTQSPSSLSASLGDSVTITCQASQSISDELSWYQQKPGQTPKLLIYGASKLQTGVPSRFSGSGSGTSFTLTISGLEAEDLATYYCLQGYRWPFMFGQGTKVELK
Given back: 228000 M⁻¹ s⁻¹

Every entry's value here was drawn from patent US11827701B2.
